Entry source: ChEMBL document CHEMBL3784917

Target: Amine oxidase [flavin-containing] B (Homo sapiens, UniProt P27338)
Sequence (P27338 whole entry): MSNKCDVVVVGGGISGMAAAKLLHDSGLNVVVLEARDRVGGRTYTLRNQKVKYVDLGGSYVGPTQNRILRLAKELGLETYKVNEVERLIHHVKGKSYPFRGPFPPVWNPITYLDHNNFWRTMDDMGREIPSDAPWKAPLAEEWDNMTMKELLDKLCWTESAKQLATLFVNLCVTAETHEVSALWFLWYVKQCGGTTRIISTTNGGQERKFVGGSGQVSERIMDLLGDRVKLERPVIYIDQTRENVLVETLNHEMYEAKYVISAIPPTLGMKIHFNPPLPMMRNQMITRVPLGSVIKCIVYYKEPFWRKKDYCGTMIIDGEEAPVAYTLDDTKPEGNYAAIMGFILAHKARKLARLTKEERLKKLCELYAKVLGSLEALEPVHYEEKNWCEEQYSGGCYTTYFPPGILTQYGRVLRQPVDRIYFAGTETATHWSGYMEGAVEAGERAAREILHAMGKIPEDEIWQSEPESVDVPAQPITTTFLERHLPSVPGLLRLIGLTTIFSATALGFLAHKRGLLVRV
Assay: Inhibition of human recombinant MAO-B using 3-(2-Aminophenyl)-3-oxopropanamine as substrate preincubated for 15 mins followed by substrate addition measured after 1 hr by fluorescence microplate reader analysis
PROPERTY_MEASURED: IC50

Problem: Give reported IC50 value for "CC(C)S(=O)(=O)Nc1cccc(-c2ccc([C@H]3C[C@@H]3N)cc2)c1"
Result: > 10 µM
